test system: Fusarium oxysporum; assay: Antifungal activity against Fusarium oxysporum at 50 ug/ml after 48 hrs by agar well diffusion method; format: functional; settings: read-out: DIZ
Decision: zone of inhibition at 50 µg/mL >= 10 mm yields T, all other cases yield F.

Prompt line: Is zone of inhibition at 50 µg/mL for `COc1ccc(/C=N/Nc2nc3cccc(C)c3s2)c(OC)c1` at or above 10 mm?
Response line: T

Prompt line: Record: `COc1cc(/C=N/Nc2nc3cccc(C)c3s2)cc(OC)c1OC`
Response line: T

Prompt line: Record: `Cc1cccc2nc(N/N=C/c3cccs3)sc12`
Response line: T

Prompt line: Record: `Cc1cccc2nc(N/N=C/c3ccccc3)sc12`
Response line: F

Prompt line: Record: `COc1cc(/C=N/Nc2nc3cccc(C)c3s2)cc(Br)c1O`
Response line: T

Prompt line: Record: `Cc1ccc(/C=N/Nc2nc3cccc(C)c3s2)cc1`
Response line: T

Prompt line: Record: `Cc1cccc2nc(N/N=C/c3ccc([N+](=O)[O-])cc3[N+](=O)[O-])sc12`
Response line: T

Prompt line: Record: `Cc1cccc2nc(N/N=C/c3ccc(F)cc3F)sc12`
Response line: T
